Quick reference for IC50 among some compounds
# study-target: Protein skinhead-1 (Caenorhabditis elegans, UniProt P34707)
# Sequence (P34707 whole entry): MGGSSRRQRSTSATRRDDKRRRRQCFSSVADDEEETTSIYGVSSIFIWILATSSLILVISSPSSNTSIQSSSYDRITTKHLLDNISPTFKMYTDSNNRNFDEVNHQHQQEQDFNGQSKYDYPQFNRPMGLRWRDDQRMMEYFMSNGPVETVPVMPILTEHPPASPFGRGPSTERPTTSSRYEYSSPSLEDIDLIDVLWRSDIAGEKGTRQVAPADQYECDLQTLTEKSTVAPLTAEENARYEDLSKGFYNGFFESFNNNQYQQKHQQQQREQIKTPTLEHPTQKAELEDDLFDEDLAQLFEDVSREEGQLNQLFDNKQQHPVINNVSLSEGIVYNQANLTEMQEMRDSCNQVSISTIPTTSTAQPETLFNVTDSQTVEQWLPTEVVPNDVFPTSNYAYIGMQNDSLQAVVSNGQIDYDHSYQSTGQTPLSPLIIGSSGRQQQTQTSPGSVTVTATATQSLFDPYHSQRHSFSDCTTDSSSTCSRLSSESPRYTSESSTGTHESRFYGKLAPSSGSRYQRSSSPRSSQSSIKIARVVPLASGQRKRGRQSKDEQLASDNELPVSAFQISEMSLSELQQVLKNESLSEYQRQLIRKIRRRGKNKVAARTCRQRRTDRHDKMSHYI
# Assay type: functional
The source made the active and inactive calls.

The following compounds have reported results that may help.
>  <compound-string>
CCOc1ccccc1NC(=O)Cn1c(=O)oc2cc(Cl)ccc21

>  <value>
> 100 µM (inactive)

$$$$
>  <compound-string>
Clc1cccc(CSc2ccc(-c3ccco3)nn2)c1

>  <value>
99.9 µM (inactive)

$$$$
>  <compound-string>
Cc1cc(NC(=O)CSc2nnc(-c3ccncc3)n2-c2ccc(F)cc2)no1

>  <value>
> 100 µM (inactive)

$$$$

# evaluate next
What the record says about `Fc1ccc(CSc2ncnc3ccccc23)cc1` : IC50 is 31.8 µM (active)

---

# study-target: Heat shock protein HSP 90-alpha (Homo sapiens)
# Assay type: functional, organism-based
Activity calls are given as the source filed them.
Quick reference for AC50 among some compounds

The following compounds have reported results that may help.
>  <compound>
CCc1sc(C(=O)Nc2nc(-c3ccccn3)cs2)cc1C

>  <AC50>
7.91 µM (active)

$$$$
>  <compound>
COc1ccc(N2CCN(c3c(S(=O)(=O)c4ccccc4)cnc4ccc(OC)cc34)CC2)cc1

>  <AC50>
2.76 µM (active)

$$$$

What the record says about `Cc1ccc(NN2C(=O)C=C(c3ccc(Cl)cc3)C2=O)cc1` : AC50 is < 0.195 µM (active)

---

Quick reference for EC50 among some molecules
# study-target: Streptokinase A (Streptococcus pyogenes serotype M1, UniProt P10520)
# Sequence (P10520 whole entry): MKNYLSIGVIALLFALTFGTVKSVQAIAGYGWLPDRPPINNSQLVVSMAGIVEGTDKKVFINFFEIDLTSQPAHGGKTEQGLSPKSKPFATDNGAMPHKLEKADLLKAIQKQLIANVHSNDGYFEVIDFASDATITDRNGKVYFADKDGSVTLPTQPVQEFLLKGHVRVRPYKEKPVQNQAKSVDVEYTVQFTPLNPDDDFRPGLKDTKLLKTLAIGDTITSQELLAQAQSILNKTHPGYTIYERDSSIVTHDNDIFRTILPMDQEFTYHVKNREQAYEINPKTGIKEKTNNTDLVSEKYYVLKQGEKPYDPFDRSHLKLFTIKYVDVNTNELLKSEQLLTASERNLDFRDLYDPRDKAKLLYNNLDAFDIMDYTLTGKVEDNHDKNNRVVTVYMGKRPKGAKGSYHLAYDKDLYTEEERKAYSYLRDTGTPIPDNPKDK
# experiment-notes: viability-normalized secreted streptokinase activity reduction – plasminogen activation absorbance, OD405, dose response (AID 1914);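 note: secreted streptokinase activity via plasminogen activation per viability signal from cell pellet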
# Assay type: functional, Streptococcus pyogenes M1 GAS

The following molecules have reported results that may help.
>  <molecule>
CCc1ccccc1NC(=O)NC(C)c1ccc2c(c1)OCO2 (centres undefined)

>  <EC50>
> 150 µM (not active)

$$$$
>  <molecule>
CCCOC(=O)c1ccc(Oc2c(C)n[nH]c2-c2ccc(OC)cc2O)cc1

>  <EC50>
> 150 µM (not active)

$$$$
>  <molecule>
Cc1cc(O)c(NC(=S)NC(=O)c2ccc(-c3ccc(Cl)cc3)o2)cc1C

>  <EC50>
> 150 µM (not active)

$$$$
>  <molecule>
COc1cccc(/C=C/C(=C2/C(=O)N(c3ccccc3)N=C2C)c2ccc(Br)cc2)c1OC

>  <EC50>
> 150 µM (not active)

$$$$
>  <molecule>
COc1ccc(CN2C(=O)c3ccccc3C(/C=N/OCc3ccc(Cl)cc3)C2=O)cc1 (centres undefined)

>  <EC50>
> 150 µM (not active)

$$$$

# evaluate next
What the record says about `N#C/C(=C(/O)CCl)c1nc2c(s1)CCc1ccccc1-2` : EC50 is > 150 µM (not active)

---

# experiment-notes: NIH3T3 cell viability loss – ATP luminescence, mouse fibroblasts, counter-screen, dose response (AID 2010);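 note: cells exposed to compound for about 90 hours before reading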
# Type: functional, cell-based
Calls of active or inactive are those of the source.
property: EC50

The following compounds have reported results that may help.
>  <compound>
CCCC(=O)NC(c1ccc(Cl)cc1Cl)c1ccc2cccnc2c1O (configuration not stated)

>  <EC50>
0.543 µM (active)

$$$$
>  <compound>
COc1ccc(CN2CCN(C(=O)C3CCC(CNS(=O)(=O)c4ccccc4)CC3)CC2)c(OC)c1OC (configuration not stated)

>  <EC50>
> 60 µM (not active)

$$$$
>  <compound>
CC(C)OC(=O)c1c(NC(=O)Cn2cnc([N+](=O)[O-])n2)sc2c1CCCC2

>  <EC50>
> 60 µM (not active)

$$$$
>  <compound>
CCCCN(CC)CCCN=C(S)Nc1ccc2nc3n(c(=O)c2c1)CCCCC3

>  <EC50>
> 60 µM (not active)

$$$$
>  <compound>
O=C(Oc1c(Cl)cc(Cl)c2cccnc12)c1ccco1

>  <EC50>
10.1 µM (active)

$$$$
>  <compound>
COc1ccc(Cn2c(SCc3cc(C)ccc3C)nc3cc(OC)c(OC)cc3c2=N)cc1

>  <EC50>
9.83 µM (active)

$$$$

# evaluate next
What the record says about `COC(=O)c1ccc(COc2ccc(/C=N/NC(N)=S)cc2)o1` : EC50 is > 60 µM (not active)

---

# study-target: Short transient receptor potential channel 4 (Mus musculus, UniProt Q9QUQ5)
# Sequence (Q9QUQ5 whole entry): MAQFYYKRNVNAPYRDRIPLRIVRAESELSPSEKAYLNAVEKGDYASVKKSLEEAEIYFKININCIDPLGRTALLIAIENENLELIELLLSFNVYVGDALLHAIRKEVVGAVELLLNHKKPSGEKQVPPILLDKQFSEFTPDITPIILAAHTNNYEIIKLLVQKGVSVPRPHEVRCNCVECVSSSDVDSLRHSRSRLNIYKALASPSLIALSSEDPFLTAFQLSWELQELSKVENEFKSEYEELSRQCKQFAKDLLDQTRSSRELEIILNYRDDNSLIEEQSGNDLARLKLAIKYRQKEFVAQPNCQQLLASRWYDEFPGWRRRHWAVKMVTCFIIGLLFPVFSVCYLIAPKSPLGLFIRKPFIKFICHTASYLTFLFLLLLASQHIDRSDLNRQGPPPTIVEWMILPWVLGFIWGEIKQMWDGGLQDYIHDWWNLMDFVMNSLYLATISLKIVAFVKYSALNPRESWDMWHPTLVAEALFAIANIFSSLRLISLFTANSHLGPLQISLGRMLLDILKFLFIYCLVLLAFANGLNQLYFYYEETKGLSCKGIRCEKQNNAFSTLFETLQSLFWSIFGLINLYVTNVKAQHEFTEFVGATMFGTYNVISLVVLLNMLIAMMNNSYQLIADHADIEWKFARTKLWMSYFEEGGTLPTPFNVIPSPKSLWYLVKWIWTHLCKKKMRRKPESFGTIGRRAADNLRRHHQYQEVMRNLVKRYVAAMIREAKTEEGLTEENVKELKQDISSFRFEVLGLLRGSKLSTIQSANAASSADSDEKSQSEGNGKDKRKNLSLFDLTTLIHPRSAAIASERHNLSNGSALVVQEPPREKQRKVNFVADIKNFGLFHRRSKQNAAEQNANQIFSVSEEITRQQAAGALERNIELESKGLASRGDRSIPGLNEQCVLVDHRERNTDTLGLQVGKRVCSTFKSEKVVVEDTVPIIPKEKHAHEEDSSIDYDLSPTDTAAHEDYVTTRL
# experiment-notes: block of DAMGO-driven TRPC4 calcium entry – cell-based, HEK293 TRPC4/mu-opioid, Fluo-4 calcium, dose response (AID 434942);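 note: potency of inhibitors blocking the TRPC4 calcium response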
# Assay type: functional
Activity calls are given as the source filed them.
property: EC50

>  <compound>
Cc1[nH]nc(-c2ccc(O)cc2O)c1-c1ccc(Cl)cc1

>  <EC50>
5.31 µM (active)

$$$$
>  <compound>
COc1ccc(CNC(=O)CN(C)Cc2ccccc2F)cc1OC

>  <EC50>
8.41 µM (active)

$$$$
>  <compound>
Nc1c2c(nc3c1CCCC3)CCCC2.O=C(O)c1ccnc(O)c1

>  <EC50>
2.99 µM (active)

$$$$
>  <compound>
COc1ccc(C)cc1N(C(=O)c1snc(C(N)=O)c1N)C(C(=O)NC1CCCC1)c1ccc(F)cc1 (stereo unspecified)

>  <EC50>
1.33 µM (active)

$$$$
>  <compound>
Cc1cc(C)c(S(=O)(=O)c2ccccc2C)c(OCC(C)(C)C)n1

>  <EC50>
2.37 µM (active)

$$$$

What the record says about `Cc1ccc(NC(=O)CSCC(=O)OCc2cc(=O)oc3cc(O)ccc23)c(C)c1` : EC50 is 5.96 µM (active)

What the record says about `CCCCN(Cc1ccccc1)C(=O)C1CCN(Cc2sccc2C)CC1` : EC50 is 2.99 µM (active)

What the record says about C=CCOc1ccc(C2CC(C)=NN2c2ccccc2)cc1 (stereo unspecified) : EC50 is 4.22 µM (active)

What the record says about `COCCn1c(SCC(=O)Nc2ccccc2OC)nc2c3ccccc3nc-2c1O` : EC50 is 3.76 µM (active)

What the record says about `CCOC(=O)CSc1nc2c(sc(=S)n2Cc2ccco2)c(=O)n1-c1ccccc1` : EC50 is 2.37 µM (active)

What the record says about `CSc1nc(N2CCOCC2)c2c3c(sc2n1)CCCC3` : EC50 is 4.73 µM (active)

---

# study-target: Corticotropin-releasing factor receptor 2/Corticotropin-releasing factor-binding protein (Homo sapiens, UniProt P24387+Q13324)
# Sequence (Q13324 whole entry): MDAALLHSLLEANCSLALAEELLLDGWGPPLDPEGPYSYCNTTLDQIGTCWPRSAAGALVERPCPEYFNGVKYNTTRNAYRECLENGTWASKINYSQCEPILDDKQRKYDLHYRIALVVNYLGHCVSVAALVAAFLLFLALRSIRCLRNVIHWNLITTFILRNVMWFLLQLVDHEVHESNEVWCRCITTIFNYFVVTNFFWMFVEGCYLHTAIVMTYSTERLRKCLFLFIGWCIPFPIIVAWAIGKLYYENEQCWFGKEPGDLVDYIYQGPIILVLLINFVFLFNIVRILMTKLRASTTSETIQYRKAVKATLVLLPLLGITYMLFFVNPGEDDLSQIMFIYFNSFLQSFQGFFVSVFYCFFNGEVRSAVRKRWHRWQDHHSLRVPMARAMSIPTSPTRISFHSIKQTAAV
# Sequence (P24387 whole entry): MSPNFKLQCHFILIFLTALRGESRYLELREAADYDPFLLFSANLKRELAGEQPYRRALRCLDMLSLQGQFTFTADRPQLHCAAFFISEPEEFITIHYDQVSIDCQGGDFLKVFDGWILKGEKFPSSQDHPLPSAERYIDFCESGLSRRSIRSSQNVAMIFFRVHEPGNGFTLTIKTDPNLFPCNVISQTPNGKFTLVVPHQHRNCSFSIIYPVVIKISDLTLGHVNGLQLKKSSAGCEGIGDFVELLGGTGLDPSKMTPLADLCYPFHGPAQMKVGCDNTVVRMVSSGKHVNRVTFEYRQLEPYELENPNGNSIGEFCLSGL
# experiment-notes: activators of CRF receptor 2 with binding protein – uHTS hits, confirmation (AID 602473)
# Type: functional
# condition-set: read-out: EC50_Mean
The source made the active and inactive calls.
Pick from label 1 for active, label 0 for inactive when you respond.

Recorded results for 9 molecules are shown here.
>  <molecule>
Cc1ccc(C)c(NC(=S)Nc2ncccc2C)c1

>  <qualitative-label>
label 0

$$$$
>  <molecule>
CSc1ncc(Cl)c(C(=O)Nc2ccc(S(=O)(=O)N3CCOCC3)cc2)n1

>  <qualitative-label>
label 0

$$$$
>  <molecule>
COc1ccc(OC)c(/C=C2\N=C(c3ccccc3)OC2=O)c1

>  <qualitative-label>
label 1

$$$$
>  <molecule>
O=c1cc(CN2CCN(Cc3ccccc3)CC2)c2cc(O)ccc2o1

>  <qualitative-label>
label 0

$$$$
>  <molecule>
CCCn1c(=N)c(S(=O)(=O)c2ccccc2)cc2c(=O)n3ccccc3nc21

>  <qualitative-label>
label 0

$$$$
>  <molecule>
CN(C)c1ccc(C=C2SC(=S)NC2=O)cc1

>  <qualitative-label>
label 1

$$$$
>  <molecule>
CS(=O)(=O)Nc1nc2n(n1)C(c1ccccc1)CC(c1ccccc1)N2 (stereo not given)

>  <qualitative-label>
label 0

$$$$
>  <molecule>
COc1ccc(S(=O)(=O)N2CCCC(C(=O)NCc3ccncc3)C2)cc1 (stereo not given)

>  <qualitative-label>
label 0

$$$$
>  <molecule>
COCCn1c2nc(=O)n(-c3ccccc3)c(=O)c-2nc2ccccc21

>  <qualitative-label>
label 1

$$$$

API: the following record is the query input.
input: What call does the record list for COc1ccccc1C1C(C(=O)c2sc(C)nc2C)=C(O)C(=O)N1CCN1CCOCC1 (stereo not given) ?
output: label 0

Taken from ChEMBL document CHEMBL1201862.
